test: Half life by HPLC methods that permitted quantitative resolution of the decrease of TP-5 and the appearance of degradation products by absorbance, human heparinized serum; assay type: ADME, cell-free
REPORTED METRIC: half-life (min)
Kindly answer with a numeric value in min, unit omitted.

[Q] Fill in the blank: the reported half-life of CCCC[C@H](NC(=O)[C@@H](N)CCCN=C(N)N)C(=O)N[C@@H](CC(=O)O)C(=O)N[C@H](C(=O)C[C@H](C(=O)O)C(C)C)C(C)C (stereo in doubt; 1h-A) is ____.
[A] 2.4

----------
test system: CCRF-CEM; assay: Binding was measured using [3H]thymopentin was compared to the CEM cell binding assay.; assay type: functional, Homo sapiens; set-up: unit not given here
REPORTED METRIC: Binding
Provide a numeric answer; units are not to be included.

Take a look at these entries with their results.
[Q] Fill in the blank: the reported Binding of CC(C)[C@H](NC(=O)[C@H](CC(=O)O)NC(=O)[C@@H]1CCCN1C(=O)[C@@H](N)CCCN=C(N)N)C(=O)C[C@H](Cc1ccccc1)C(=O)O (stereo in doubt; 1b-B) is ____.
[A] 2000

[Q] Fill in the blank: the reported Binding of `CC(C)C[C@H](NC(=O)[C@@H](N)CCCN=C(N)N)C(=O)N[C@@H](CC(=O)O)C(=O)N[C@H](C(=O)C[C@H](Cc1ccccc1)C(=O)O)C(C)C` is ____.
[A] 1851

Then there is this compound:
[Q] Fill in the blank: the reported Binding of CCCC[C@H](NC(=O)[C@@H](N)CCCN=C(N)N)C(=O)N[C@@H](CC(=O)O)C(=O)N[C@@H](C)C(=O)C[C@H](Cc1ccccc1)C(=O)O (stereo in doubt; 1g-A) is ____.
[A] 1677
